In this section we review reported TGI values for a set of compounds.
- System: DU-145 prostate
- Experimental protocol: NCI tumour cell line growth inhibition, 48 h

OCCNc1nc(Nc2ccc(Cl)c(Cl)c2)nc2ccccc12 ... 22.9 µM
CC(=O)OC[C@@]12Cc3ccc(C)c(O)c3[C@]1(C)[C@@H](OC(C)=O)[C@]1(O)[C@H]([C@@H](OC(=O)c3ccccc3)[C@@H](C)[C@H]1OC(C)=O)[C@H]2OC(C)=O ... > 50 µM
COc1ccc(N=NC(=Nc2ccc(Cl)cc2)c2ccc(N(CCC#N)CCC#N)cc2)cc1 ... > 100 µM

Q: Requested read-out TGI, target or system DU-145 prostate, entry O/N=C1/CC2(N3CCOCC3)C3CC/C(=N\O)C2CC1(Cc1ccccc1)C3 (centres undefined)
Ans: > 100 µM

====

- System: SW-620 colon
- Experimental protocol: NCI tumour cell line growth inhibition, 48 h
Assay readout: GI50

Solved entries:
Cc1cc(N2CCOCC2)nc(N(CCCNc2ccnc3cc(Cl)ccc23)Cc2ccco2)n1 ... 2730 nM
Oc1c(Cl)cc(Cl)cc1C(c1cc(Cl)cc(Cl)c1O)C(Cl)(Cl)Cl ... 2980 nM

Next molecule, GI50 to be filled in.
Q: Bench note: what GI50 did CCOC(=O)c1cc(-c2ccccc2)[nH]c1N/N=C/c1ccc(Cl)cc1 show?
Ans: > 100000 nM

====

Recorded measurements of TGI, one per entry
- Test system: TK-10 renal
- Experimental protocol: NCI tumour cell line growth inhibition, 48 h

Solved entries:
COc1cc2c(cc1OC)C(=O)C1(C2)[C@H](c2ccccc2)C2C(=O)c3cc(OC)c(OC)cc3C2[C@H]1c1ccccc1 (stereo partly specified) ... > 100 µM
[N-]=[N+]=NCCCn1c2c(c3ccc([N+](=O)[O-])cc3c1=O)C(=O)c1cc(F)ccc1-2 ... > 100 µM
O=C(NC(Cc1cnc[nH]1)C(=O)N1CCCC1)C1CCCC1 (stereo unspecified) ... > 100 µM

Q: Please tell me: TGI of CC(=O)OCC1OC(O[C@@H]2C[C@H]3C(C)(C)[C@@H](OC(C)=O)CC[C@]3(C)[C@H]3CC[C@]45C[C@]4(CC[C@H]5[C@@H](C)C[C@@H](O)[C@H](O)C(C)(C)F)[C@@]32C)C(O)C(O)C1O (stereo partly specified) , system TK-10 renal?
Ans: > 100 µM

Q: TK-10 renal / TGI / COC(=O)C(Br)C1CCc2ccccc21 (stereo unspecified) : value?
Ans: > 100 µM

Q: For TK-10 renal, provide TGI of O=S1(=O)OCCOS(=O)(=O)C1Cc1cccc2ccccc12 please.
Ans: > 100 µM

Q: GET /values?readout=TGI&system=TK-10 renal&item= NS(=O)(=O)c1ccc(N(/C=C/C(=O)C(F)(F)F)Cc2ccc(Cl)cc2)cc1
Ans: 55.8 µM

Q: For the record COC(=O)C1=C(C)NC(C)=C(C(=O)OC)C1c1ccc(N=O)cc1 , what value of TGI is listed for TK-10 renal?
Ans: 29.2 µM

Q: What reported TGI corresponds to CN1CCN(c2ccc(NC(=O)c3cncnc3Nc3ccc(OCc4ccccn4)c(Cl)c3)cc2)CC1 on TK-10 renal?
Ans: 15.3 µM

Q: # get_value(readout= TGI, system= TK-10 renal) for Clc1ccc(OCc2nnc3sc(-c4ccc(-c5ccc(Cl)cc5Cl)o4)nn23)cc1
Ans: > 100 µM

Q: // lookup TGI | system=TK-10 renal | key= CCOc1ccccc1-c1nc2c(s1)C(=O)c1ccccc1C2=O
Ans: 34.4 µM
